# tested_target: Torsin-1A-interacting protein 1 (Homo sapiens) (UniProt Q5JTV8)
# Sequence (Q5JTV8 whole entry, looked up): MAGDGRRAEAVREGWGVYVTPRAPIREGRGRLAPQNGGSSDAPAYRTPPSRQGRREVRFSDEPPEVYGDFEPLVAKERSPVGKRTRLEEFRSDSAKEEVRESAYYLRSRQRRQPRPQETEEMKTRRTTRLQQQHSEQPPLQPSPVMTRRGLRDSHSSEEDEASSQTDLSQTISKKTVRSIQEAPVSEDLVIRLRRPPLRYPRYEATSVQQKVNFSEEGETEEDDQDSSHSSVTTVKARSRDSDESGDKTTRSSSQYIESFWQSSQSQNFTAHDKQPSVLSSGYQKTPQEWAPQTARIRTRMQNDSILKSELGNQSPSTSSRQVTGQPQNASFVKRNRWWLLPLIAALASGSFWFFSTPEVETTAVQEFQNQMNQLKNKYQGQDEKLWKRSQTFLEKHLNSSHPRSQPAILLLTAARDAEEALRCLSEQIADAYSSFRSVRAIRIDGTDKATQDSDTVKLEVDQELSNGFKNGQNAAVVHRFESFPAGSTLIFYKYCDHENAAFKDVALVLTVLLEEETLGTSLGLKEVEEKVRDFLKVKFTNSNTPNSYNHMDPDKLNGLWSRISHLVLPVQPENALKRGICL
# protocol_text: compound microarray binding of lysate hLAP1 – cell lysate, small-molecule microarray, COS7 lysate, 635/667 nm fluorescence, primary screen (AID 1116)
# condition_info: 635 nm fluorescence, higher = more signal
composite z-score reference
Reply with just the number.

Guide cases for composite z-score, answers given:
# compound, composite z-score
data = [
    ("C=CCNC(=O)[C@@H]1[C@H]2C(=O)O[C@H](c3ccccc3)[C@H](c3ccccc3)N2[C@H](c2ccc(OCCO)cc2)[C@@]12C(=O)Nc1ccc(C#CC3(O)CCCCCC3)cc12", 0.699),
    ("COc1ccc(C#Cc2ccc3c(c2)[C@]2(C(=O)N3)[C@H](C(=O)O)[C@H]3C(=O)O[C@H](c4ccccc4)[C@H](c4ccccc4)N3[C@@H]2c2ccccc2OCCO)cc1", 0.835),
    ("COC(=O)C(CC#Cc1ccc2c(c1)[C@]1(C(=O)N2)[C@H](c2ccccc2OCCO)N2[C@H](c3ccccc3)[C@H](c3ccccc3)OC(=O)[C@H]2[C@@H]1C(=O)N1CCc2cc(OC)c(OC)cc2C1)C(=O)OC", 1.68),
    ("O=C1[C@@H]2[C@@H](CC(COc3ccccc3)=C([C@H](O)CCc3ccccc3)[C@@H]2CO)C(=O)N1Cc1ccccc1", 0.47),
]

Tell us which composite z-score value is on record for `COC(=O)[C@@]1(Cc2ccccc2)[C@H]2c3cc(C(=O)N4CCCC4)n(Cc4ccc(OC)c(OC)c4)c3C[C@H]2CN1C(=O)c1ccccc1`
1.38

Please report the measured composite z-score for `COC(=O)C(CC#Cc1ccc2c(c1)[C@]1(C(=O)N2)[C@H](c2ccc(OCCO)cc2)N2[C@H](c3ccccc3)[C@H](c3ccccc3)OC(=O)[C@H]2[C@@H]1C(=O)N1CCCCCCC1)C(=O)OC`
4.91

Given the compound `CC(C)N1C(=O)c2ccccc2[C@](C)(C(=O)NCC(F)(F)F)[C@@H]1c1ccc(CO)cc1` , write its reported composite z-score.
0.716

Tell me its composite z-score given `COCCOC(=O)N1C(=O)[C@@]2(c3cc(C#CCCO)ccc31)[C@H](c1ccccc1OCCO)N1[C@H](c3ccccc3)[C@H](c3ccccc3)OC(=O)[C@H]1[C@@H]2C(N)=O` as the entry.
0.606

Using known records, supply composite z-score for `COc1ccc([Si](C)(C)[C@H]2[C@H](CCO)O[C@@]3(C(=O)N(Cc4ccc(NC(=O)[C@H](C)O)cc4)c4ccccc43)[C@@H]2C)cc1`
0.989

###

# tested_target: Dickkopf-related protein 1 (Homo sapiens)
# protocol_text: small molecules binding DKK1 protein – biochemical, small-molecule microarray, 635 nm fluorescence scan, primary screen (AID 1106);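 also: score merges emission near 667 nm with signal to noise over three replicate slides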
# condition_info: higher = more signal
assay_readout: composite z-score
Field format: numeric only.

See these solved cases before continuing.
# molecule, composite z-score
measured = [
    ("CN(C)CCCNC(=O)[C@@]1(Cc2ccccc2I)c2ccccc2C(=O)N(C2CCCCC2)[C@H]1c1ccc(CO)cc1", 0.183),
    ("CCCC=C(CCC)[C@@H](NC(=O)OCC(C)C)c1ccc(C(=O)OC)cc1", 0.85),
    ("O=C(O)[C@H](Cc1ccccc1)n1cc(C2(O)CCCCC2)nn1", 0.196),
]

Now for the molecule whose composite z-score we want.
Give composite z-score for this entry on Dickkopf-related protein 1 (Homo sapiens): CC(C)=CCCC(C)=CC(O)C1C=CC2C(=O)NC(=O)C2N1Nc1ccccn1 (centres undefined)
1.76

###

# protocol_text: inhibition of PAO1 biofilm formation – strain PAO1, LB-PBS medium, absorbance 600 nm, primary screen (AID 1176); also: test concentration not given here
# condition_info: P. aeruginosa PAO1 growth/biofilm, A600, 12 h; higher = more signal
assay_readout: z-score
Lab note: record the figure alone, no unit after it.

Specify reported z-score for the compound shown: CN1C(=O)C2C(C1=O)C1C=C(c3ccc(CO)cc3)C2C(C2CC2)N1C (stereo not given)
-0.305

Give z-score for the following compound: `COCCOC(=O)N1C(=O)[C@@]2(c3cc(C#CCCO)ccc31)[C@H](C(N)=O)[C@H]1C(=O)O[C@H](c3ccccc3)[C@H](c3ccccc3)N1[C@@H]2c1ccccc1OCCO`
0.594

Fill in reported z-score for this entry: `CO[C@H]1O[C@H](CO)[C@@H](OC(=O)Nc2ccccc2)[C@H](OC(=O)Nc2ccccc2)[C@H]1OC(=O)Nc1ccccc1`
-0.317

Give the reported z-score for this compound. CC(C)C(O)C1C=CC2C(=O)NC(=O)C2N1Nc1ccccn1 (stereo not given)
0.612

Indicate the recorded z-score value for this compound: `CCCNC(=O)[C@@]1(c2ccc([N+](=O)[O-])cc2)CC(=O)N(C(C)C)[C@@H]1c1ccc(CO)cc1`
0.373

###

# tested_target: Torsin-1A (Homo sapiens) (UniProt O14656)
# Sequence (O14656 whole entry, looked up): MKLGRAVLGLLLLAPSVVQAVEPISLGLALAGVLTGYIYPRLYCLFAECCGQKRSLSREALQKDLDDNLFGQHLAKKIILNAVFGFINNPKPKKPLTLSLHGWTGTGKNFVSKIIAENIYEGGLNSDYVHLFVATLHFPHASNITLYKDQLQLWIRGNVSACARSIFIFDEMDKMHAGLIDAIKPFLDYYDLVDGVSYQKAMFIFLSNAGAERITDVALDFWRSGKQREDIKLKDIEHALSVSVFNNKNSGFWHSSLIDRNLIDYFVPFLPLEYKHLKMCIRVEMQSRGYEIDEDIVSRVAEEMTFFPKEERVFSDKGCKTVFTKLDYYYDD
# protocol_text: torsin A mutant lysate binding on microarrays – cell lysate, small-molecule microarray, COS7 lysate, 635/667 nm fluorescence, primary screen (AID 1150);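 also: score pools 667 nm emission and signal to noise measuring lysate protein binding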
# condition_info: COS7 hTOR1A mutant lysate, 635 nm fluorescence, higher = more signal
Recorded composite z-score, one value per entry.
Form: value (number only, do not type unit).

# compound, test_value
records = [
    ("O=C(NC1CC1)[C@@H]1c2ccccc2C(=O)N(Cc2cc(C(F)(F)F)cc(C(F)(F)F)c2)[C@H]1c1ccc(CO)cc1", -0.727),
]

Tell me measured composite z-score for CCC(CC)C(O)C1C=CC2C(=O)N(c3ccccc3)C(=O)C2N1Nc1ccccc1F (centres undefined) please.
0.597

Give me measured composite z-score, please, for this compound: `COC(=O)[C@@]1(Cc2ccccc2)[C@H]2c3cc(C(=O)N(C)C)n(CCO)c3C[C@H]2CN1C(=O)c1ccccc1`
0.133

Please report the measured composite z-score for `COC(=O)[C@]1(Cc2ccccc2)N=C(c2ccc(OCCCO)cc2)O[C@@H]1c1ccccc1CN=[N+]=[N-]`
0.104

###

Recorded measurements of composite z-score, one per entry
# tested_target: Pro-neuregulin-1, membrane-bound isoform (Homo sapiens)
# protocol_text: small molecules binding neuregulin-1 protein – biochemical, small-molecule microarray, fluorescence 635/667, psychiatric disease protein project, primary screen (AID 1075);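 also: score combines 667 nm spot fluorescence with signal to noise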
# condition_info: NRG1 binding, 635 nm fluorescence, higher = more signal
Give the figure only, with no unit attached.

These recorded examples may help you get a feel for the data.
# molecule, tested_target, composite z-score
rows = [
    ("CC1CC/C=C\\[C@H]2OC34C=CCN(Cc5ccccc5)C(=O)[C@H]3N(CCCCCCO)C(=O)[C@@H]4C2C(=O)O1 (some centres not stated)", "Pro-neuregulin-1, membrane-bound isoform (Homo sapiens)", 1.91),
    ("C[C@@H]1ON(c2ccccc2)[C@H](c2ccccc2)[C@H]1C(=O)O", "Pro-neuregulin-1, membrane-bound isoform (Homo sapiens)", -0.515),
    ("CCCN1C(=O)[C@]2(CCC(=O)OC(C)(C)C)N=C(c3ccc(OCCCO)cc3)O[C@@H]2c2ccccc21", "Pro-neuregulin-1, membrane-bound isoform (Homo sapiens)", 0.421),
    ("O=C1C[C@@](C(=O)NCc2ccccc2)(c2ccc([N+](=O)[O-])cc2)[C@@H](c2ccc(CO)cc2)N1C1CCCCC1", "Pro-neuregulin-1, membrane-bound isoform (Homo sapiens)", 1.4),
    ("COCCOC(=O)N1C(=O)[C@@]2(c3cc(C#CCCO)ccc31)[C@H](C(N)=O)[C@H]1C(=O)O[C@H](c3ccccc3)[C@H](c3ccccc3)N1[C@@H]2c1ccccc1OCCO", "Pro-neuregulin-1, membrane-bound isoform (Homo sapiens)", 1.43),
    ("COC(=O)[C@H](Cc1ccc(O)cc1)N[C@@H](/C=C/C1CC1)[C@H](O)Cc1ccccc1", "Pro-neuregulin-1, membrane-bound isoform (Homo sapiens)", -0.721),
]

Would you kindly look at the next entry?
Identify composite z-score associated with the molecule CCCCC(O)C1C=CC2C(=O)N(c3ccccc3)C(=O)C2N1Nc1ccc(C#N)cc1 (configuration not stated)
1.9

###

# protocol_text: probe aNOTCH3 binding on compound microarray – biochemical, small-molecule microarray, 635/667 nm fluorescence, primary screen (AID 1120);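 also: probe is a biotin-tagged antibody raised against NOTCH3 rather than NOTCH3 protein; score merges spot fluorescence near 667 nm with spot signal to noise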
# condition_info: higher = more signal
assay_readout: composite z-score
Answer field: number only, no words.

Below, 3 compounds whose answers are already recorded.
# compound, composite z-score
rows = [
    ("N#Cc1ccc(C(O)C2C=CC3C(=O)NC(=O)C3N2Nc2ccc(Cl)cc2Cl)cc1 (stereo unspecified)", 0.112),
    ("O=C1C2C=CC(C(O)c3c(F)cccc3Cl)N(Nc3ccc([N+](=O)[O-])cc3)C2C(=O)N1c1ccccc1 (stereo unspecified)", 0.465),
    ("C[N+](C)(C)CCCC[C@@H]1NC(=O)[C@@H]2C[C@H](C(=O)NCc3ccc(F)cc3)[C@H](c3ccc(O)cc3)N2C1=O", -0.307),
]

Output measured composite z-score for this item: `CCCC[C@H]1C[C@@H]1[C@@H]1N(C(C)=O)[C@H](c2cccc(OC)c2)CC12CC2`
0.0026

# return recorded composite z-score for input `CCCN1C(=O)[C@]2(CCC(=O)OC(C)(C)C)N=C(c3ccc(OCCCO)cc3)O[C@@H]2c2ccccc21`
-0.0044

Could you please provide reported composite z-score for `COC(=O)[C@@]1(Cc2ccccc2)[C@H]2c3cc(C(=O)N(C)C)n(Cc4ccc(S(C)(=O)=O)cc4)c3C[C@H]2CN1C(=O)c1ccccc1` ? Thanks!
0.364

Give a short answer stating reported composite z-score for `CC(C)C(=C=CC[C@H](O)c1ccccc1OCCO)C[C@H](O)c1cc(Cl)cc(Cl)c1O` .
0.141

Determine from records and report composite z-score for `CCCNC(=O)[C@@]1(c2ccc([N+](=O)[O-])cc2)CC(=O)N(C(C)C)[C@@H]1c1ccc(CO)cc1`
-0.344

Give the measured composite z-score for COc1cc(OC)c(C(O)C2C=CC3C(=O)N(c4ccccc4)C(=O)C3N2Nc2ccc(C(C)C)cc2)cc1Br (stereo unspecified)
0.274

Please look at this compound and report its composite z-score: `COc1ccc(C(=O)Nc2cccc(CN3C(=O)[C@@]4(O[C@@H](CC(=O)N5CCC[C@H]5CO)[C@H]([Si](C)(C)c5ccc(OC)cc5)[C@H]4C)c4ccccc43)c2)cc1`
0.0305

Identify measured composite z-score corresponding to `[N-]=[N+]=Nc1ccccc1C[C@@]1(C(=O)NCc2ccccc2)N=C(c2ccc(OCCCO)cc2)O[C@@H]1c1ccccc1N=[N+]=[N-]`
0.467
